- protocol text: in vitro
- condition parameters: human, hela cells, % viability
assay metric: viability at 28.5 h, 10 µM (%)
Give the number; % is assumed, so skip it.

Query: Need viability at 28.5 h, 10 µM of Cc1noc2nc(C3CCCN(C(=O)C4CC4)C3)cc(C(F)F)c12 (stereo not drawn) , thanks.
Response: 85.8

Query: Find the recorded viability at 28.5 h, 10 µM belonging to CS(=O)(=O)Nc1cc2cccnc2nc1-c1ccc2c(c1)CCO2 and report it.
Response: 104

Query: Entry under review: O=C1CC(/C=C/c2ccccc2)Cc2[nH]c(=O)c(C(=O)O)cc21 (stereo not drawn) . Reported viability at 28.5 h, 10 µM?
Response: 92.9

* * *

- protocol text: in vitro
- condition parameters: human, hela cells, % viability
assay metric: viability at 28.5 h, 10 µM
Respond with a number, then the unit of measure.

Query: For Cc1[nH]c2c(C(=O)Nc3cccc(CN4CCOC4=O)c3)cccc2c1C [CBK298338] , what is its reported viability at 28.5 h, 10 µM?
Response: 90.3%

Query: Look at this compound and give its reported viability at 28.5 h, 10 µM. NC(=O)OC(c1ccccc1[N+](=O)[O-])P(=O)(c1ccccc1)c1ccccc1 (stereo not drawn) [CBK261383]
Response: 88.3%

Query: Quick one: viability at 28.5 h, 10 µM for COC(=O)c1cn([C@H]2CO[C@H]3[C@@H]2OC[C@H]3OC(=O)Nc2ccccc2)nn1 [CBK289492] ?
Response: 91.4%

* * *

Please respond with reported viability at 28.5 h, 10 µM for every item in the list.
- protocol text: in vitro
- condition parameters: human, hela cells, % viability

Query: Entry Cc1ccc(C(=O)NC(=S)Nc2ccc(C(=O)O)c(Cl)c2)cc1Cl has what viability at 28.5 h, 10 µM?
Response: 95%

Query: Give its viability at 28.5 h, 10 µM value. Item: Nc1nnc(CSCc2ccc(Cl)cc2Cl)s1
Response: 100%

Query: Requested field: viability at 28.5 h, 10 µM. Item: CCOC(=O)C1(C2CCCCC2)CCN(C(=O)c2cc[nH]c2)CC1
Response: 92.1%

Query: Which value of viability at 28.5 h, 10 µM has been reported for O=C(O)CCc1ccc(-c2cn3ccnc3c(NCc3ccncc3)n2)cc1 in the records?
Response: 90.6%

Query: Record request: viability at 28.5 h, 10 µM value, item Cc1cc(NS(=O)(=O)c2ccc(NC(=O)c3ccc(C(C)(C)C)c(Br)c3)cc2)no1
Response: 119%

Query: Fill in the blank: the reported viability at 28.5 h, 10 µM of Cc1nn2c(-c3cccc(NC(=O)CN4CCOCC4)c3)nnc2c2ccccc12 is ____.
Response: 84.3%

Query: Recorded viability at 28.5 h, 10 µM for COc1ccc2ncc3c(c2c1)NCCNC3=O , please?
Response: 88.4%

Query: GET /values?readout=viability at 28.5 h, 10 µM&item= CCN(CC)C(=O)Cn1c(=O)n(Cc2ccco2)c2ncccc21
Response: 109%

Query: Could you share which viability at 28.5 h, 10 µM value was measured for O=C(NCCN1CCC(O)(c2cccc(F)c2)CC1)C1CCCC1 ?
Response: 110%

Query: Which measured viability at 28.5 h, 10 µM value corresponds to Cc1cc(C(=O)CSc2nccc(C(F)(F)F)n2)c(C)n1C1CC1 ?
Response: 80%

Query: viability at 28.5 h, 10 µM; subject: O=C(O)COc1ccccc1/C=N/n1c(S)nnc1-c1ccc(Cl)cc1Cl
Response: 89.5%

Query: Requested read-out: viability at 28.5 h, 10 µM. Entry: COc1cccc(-c2cncc(C3CCCN(Cc4ccc5[nH]ccc5c4)C3)n2)c1 (centres unmarked)
Response: 84.7%

Query: Record request: viability at 28.5 h, 10 µM value, item O=C(NC(=S)Nc1cc(-c2nc3ccccc3[nH]2)ccc1Cl)c1ccccc1[N+](=O)[O-]
Response: 93.7%

Query: What does the data say about its viability at 28.5 h, 10 µM? Entry: CNC(=O)C1CCN(S(=O)(=O)c2ccc(C(C)(C)C)cc2)CC1
Response: 90.3%

Query: Reported viability at 28.5 h, 10 µM, compound CC(=O)N1CC2(CCN(Cc3nccn3C(C)C)CC2)CC1C(=O)O (centres unmarked) : ____
Response: 93.7%

Query: Which viability at 28.5 h, 10 µM is listed for CCNC(=O)Nc1ccccc1C(=O)NC1CCCCC1 ?
Response: 89.6%

Query: What does the data say about its viability at 28.5 h, 10 µM? Entry: CC(CN1CCCCC1)NC(=O)c1cc(-c2ccncc2)nc2ccc(Br)cc12 (centres unmarked)
Response: 90.6%

* * *

Could you please report measured viability at 28.5 h, 10 µM for the items listed next?
- protocol text: in vitro
- condition parameters: human, hela cells, % viability

Query: Quick check: viability at 28.5 h, 10 µM of O=[N+]([O-])c1cc(F)ccc1Oc1cccc(C(F)(F)F)c1 ?
Response: 91.9%

Query: Recorded viability at 28.5 h, 10 µM of O=C(O)CCNS(=O)(=O)c1ccc(I)cc1 , please.
Response: 111%

Query: Dear colleague, I am looking for the recorded viability at 28.5 h, 10 µM of the following compound: COc1ccccc1-c1cnc2[nH]c(=O)n(CC3CCOCC3)c2n1
Response: 100%

Query: Which value of viability at 28.5 h, 10 µM has been reported for CCCn1cc(NC(=O)NCc2cc3c(cc2OC)CCC3)nn1 in the records?
Response: 86.4%

Query: Please report the recorded viability at 28.5 h, 10 µM for COc1ccc(-c2cnc3[nH]c(=O)n(Cc4ccccc4)c3n2)cc1 .
Response: 103%

Query: Value lookup for viability at 28.5 h, 10 µM; key = CC(c1ccco1)N(C)Cc1c[nH]nc1-c1ccc(O)cc1 (centres unmarked)
Response: 89%

Query: What viability at 28.5 h, 10 µM value was documented for this compound, Cc1cc(F)c(S(N)(=O)=O)cc1NC(=O)c1ccc(CN2CCOCC2)o1 [CBK059376C] ?
Response: 97.7%

Query: If you can, please state the reported viability at 28.5 h, 10 µM value of CNC(=O)CN(C)Cc1c(C(=O)N2CCOCC2)nc2c(C)cccn12 .
Response: 114%

Query: Need viability at 28.5 h, 10 µM of CC(C)CCC1(CN2CCCC2=O)C(=O)NC(=O)NC1=O , thanks.
Response: 90.5%

Query: I would be grateful if you could share the reported viability at 28.5 h, 10 µM for O=C(Nc1ccccc1N1CCCNCC1)c1ccc2ccccc2c1 [CBK038927T] .
Response: 97.3%

Query: Record request: viability at 28.5 h, 10 µM value, item CN(C)C[C@@H]1Cc2cccc3cccc(c23)[C@@H]1O [CBK005877C]
Response: 111%

Query: Fill in: viability at 28.5 h, 10 µM of Cc1nn(C)c2nc(NCc3ccc(C(=O)N4CCCCC4)cc3)sc12 is ___
Response: 86.6%

Query: Quick one: viability at 28.5 h, 10 µM for COc1ccc(Nc2ccc(-c3ccc4ccccc4c3)cn2)cn1 ?
Response: 88.6%

Query: Can you share its viability at 28.5 h, 10 µM? I mean this compound: O=C(O)c1cccnc1SC1CC(=O)N(c2ccc([N+](=O)[O-])cc2)C1=O (centres unmarked)
Response: 100%

* * *

- protocol text: in vitro
- condition parameters: human, hela cells, % viability
Peptide text beside a SMILES is read from it. * marks the point of attachment. Bz = O=C(c1ccccc1)*
assay metric: viability at 28.5 h, 10 µM (%)
Form entry: value (%) — number only.

Query: I would be grateful if you could share the reported viability at 28.5 h, 10 µM for CN(CC(=O)Nc1cccnc1N1CCNCC1)C(=O)c1ccccc1 [CBK028264T] .
Response: 95.8

Query: // returns reported viability at 28.5 h, 10 µM for input O=C(Nc1ccc2oc(-c3ccccc3)nc2c1)C1CCCO1 (stereo not drawn) [CBK107724]
Response: 84.1

Query: Given CCOC(=O)c1c(NC(=O)Cn2cnc3ccccc32)sc2c1CCCC2 [CBK260917] , state its recorded viability at 28.5 h, 10 µM.
Response: 106

Query: May I ask what viability at 28.5 h, 10 µM has been recorded for COC(=O)c1cc(C#N)c(=O)n(CC(O)COc2c(C)cccc2C)c1 (stereo not drawn) [CBK305709] ?
Response: 97.2

Query: Quick one: viability at 28.5 h, 10 µM for Cc1ccn(CCNC(=O)C(C)Cc2cccs2)n1 (stereo not drawn) [CBK281625] ?
Response: 106

Query: For the molecule CC(=O)N[C@@H](Cc1c[nH]cn1)C(=O)Nc1cc2ccccc2c(Br)n1 [CBK063302] , what viability at 28.5 h, 10 µM is on record?
Response: 91.3

Query: What does the record list as viability at 28.5 h, 10 µM for COc1cccc2ncn(CCCc3c(C)n[nH]c3C)c(=O)c12 [CBK307153] ?
Response: 82.9

Query: So what's the measured viability at 28.5 h, 10 µM for this one? CN1CCN(CCC(=O)N/N=C/c2ccc3c(c2)OCO3)CC1 [CBK261498]
Response: 91.5

Query: Look up viability at 28.5 h, 10 µM for this molecule: CCOC(=O)c1cnc(SC)nc1NCCc1c[nH]c2cc(F)ccc12 [CBK092315]
Response: 96

Query: I am curious: what viability at 28.5 h, 10 µM value has been reported for COCCN1CCN(C(=O)[C@@H]2Cc3c[nH]c4cccc(c34)[C@H](CC(C)C)N2)CC1 [CBK289419] ?
Response: 84.5

Query: Any idea what viability at 28.5 h, 10 µM was measured for O=C(NCc1ccncc1)c1nn(-c2ncccn2)c2ccccc12 [CBK048498] ?
Response: 93.1

Query: Find the recorded viability at 28.5 h, 10 µM belonging to COc1ccccc1NCc1c(O)c(Br)cc2oc3c(c12)CCCC3 [CBK160398] and report it.
Response: 93.4

Query: What value of viability at 28.5 h, 10 µM has been reported for the following molecule? CCCc1nn(CC(=O)NC(C)C)c(=O)c2cc3ccsc3n12 [CBK284147]
Response: 87.5

Query: Reported viability at 28.5 h, 10 µM for O=C(O)/C=C\C(=O)Nc1ccccc1C#Cc1ccccc1 [CBK261680] : what is it?
Response: 82.9

Query: Suppose we examine the molecule Cc1cn2cccc(C(=O)N3CCCCC3CCN3CCOCC3)c2n1 (stereo not drawn) [CBK306518] ; what viability at 28.5 h, 10 µM value has been reported?
Response: 90.3

Query: Please look up its viability at 28.5 h, 10 µM: CC(=O)Nc1cccc(C(=O)O)c1Cl [CBK038814]
Response: 94.1

Query: # input molecule: CC(C)NC(=O)N1C[C@@H]2C[C@H](C1)c1ccc(-c3cccnc3)c(=O)n1C2 [CBK289184] ; wanted: its viability at 28.5 h, 10 µM
Response: 97.5

Query: Quick check: viability at 28.5 h, 10 µM of O=C(NC(Cc1ccccc1)C(=O)N1CCCC1C(=O)O)c1ccccc1 (stereo not drawn) [CBK264058] (Bz-Phe-Pro-OH; configuration not given here) ?
Response: 90.8

Query: What does the data say about its viability at 28.5 h, 10 µM? Entry: O=C1N=C(NCC2CCCCC2)SC1CC(=O)N1CCCC(O)C1 (stereo not drawn) [CBK067919]
Response: 109

Query: Quick one: viability at 28.5 h, 10 µM for Cc1ccnn1CCC(=O)N1CCn2cc(C(F)(F)F)nc2C1 [CBK283912] ?
Response: 110

Query: Consider the molecule CN(C)CCN(C)C(=O)c1cc(-c2ccc(Cl)cc2)[nH]n1 [CBK115928] and give its measured viability at 28.5 h, 10 µM.
Response: 94.9
